Test system: 931267-113-T-J1-PDC multicell spheroid viability
METHOD: Anticancer human tumor 931267-113-T-J1-PDC patient-derived colon adenocarcinoma cell line growth inhibition [PI3K]
SETUP CONDITIONS: second compound 0.01 µM; first compound 0.316 µM; hits give low values
Field: viability, T/C. Provide a value for each of the compounds that follow.
# unit: % | format: bare number

Let me check: Cn1ncc(Cl)c1-c1cc(C(=O)NC(CN)Cc2cccc(F)c2)sc1Cl (centres undefined) + CC(Nc1ccc2c(c1)OCCn1cc(N3C(=O)OCC3C(F)F)nc1-2)C(N)=O , system 931267-113-T-J1-PDC multicell spheroid viability, measured viability, T/C is 91

Let me check: Cn1nccc1Nc1nccc(-c2ccn(C(CO)c3ccc(Cl)c(F)c3)c(=O)c2)n1 (centres undefined) + CC(Nc1ccc2c(c1)OCCn1cc(N3C(=O)OCC3C(F)F)nc1-2)C(N)=O , system 931267-113-T-J1-PDC multicell spheroid viability, measured viability, T/C is 97.2

Let me check: C=CC(=O)N1CCN(c2nc(=O)n(-c3c(C)ccnc3C(C)C)c3nc(-c4c(O)cccc4F)c(F)cc23)C(C)C1 (centres undefined) + CC(Nc1ccc2c(c1)OCCn1cc(N3C(=O)OCC3C(F)F)nc1-2)C(N)=O , system 931267-113-T-J1-PDC multicell spheroid viability, measured viability, T/C is 117

Let me check: CNC(=O)c1ccc(N2C(=S)N(c3ccc(C#N)c(C(F)(F)F)c3)C(=O)C2(C)C)cc1F + CC(Nc1ccc2c(c1)OCCn1cc(N3C(=O)OCC3C(F)F)nc1-2)C(N)=O , system 931267-113-T-J1-PDC multicell spheroid viability, measured viability, T/C is 107

* * *

System: 931267-113-T-J1-PDC multicell spheroid viability
METHOD: Anticancer human tumor 931267-113-T-J1-PDC cell line growth inhibition [PI3K];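 further: viability read 7 days after compound addition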
SETUP CONDITIONS: second compound 0.00316 µM; first compound 0.00316 µM; hits give low values
Field: viability, T/C. Provide a value for each of the compounds that follow.
# unit: % | format: bare number

Notebook: CCN1CCN(Cc2ccc(Nc3ncc(F)c(-c4cc(F)c5nc(C)n(C(C)C)c5c4)n3)nc2)CC1 + CC(Nc1ccc2c(c1)OCCn1cc(N3C(=O)OCC3C(F)F)nc1-2)C(N)=O , viability, T/C read as 95.5

Notebook: Cn1ncnc1[C@H]1c2n[nH]c(=O)c3cc(F)cc(c23)N[C@@H]1c1ccc(F)cc1 + CC(Nc1ccc2c(c1)OCCn1cc(N3C(=O)OCC3C(F)F)nc1-2)C(N)=O , viability, T/C read as 104

Notebook: CCN1CCN(Cc2ccc(Nc3ncc(F)c(-c4cc(F)c5nc(C)n(C(C)C)c5c4)n3)nc2)CC1 + COc1c(OCCCN2CCOCC2)ccc2c3n(c(=NC(=O)c4cnc(N)nc4)nc12)CCN3 , viability, T/C read as 91.3

Notebook: CC(C)n1nc(-c2ccc3oc(N)nc3c2)c2c(N)ncnc21 + COc1c(OCCCN2CCOCC2)ccc2c3n(c(=NC(=O)c4cnc(N)nc4)nc12)CCN3 , viability, T/C read as 94.1

Notebook: CC(=O)c1c(C)c2cnc(Nc3ccc(N4CCNCC4)cn3)nc2n(C2CCCC2)c1=O + CC(Nc1ccc2c(c1)OCCn1cc(N3C(=O)OCC3C(F)F)nc1-2)C(N)=O , viability, T/C read as 95.1

Notebook: CC(C)n1nc(-c2ccc3oc(N)nc3c2)c2c(N)ncnc21 + CC(Nc1ccc2c(c1)OCCn1cc(N3C(=O)OCC3C(F)F)nc1-2)C(N)=O , viability, T/C read as 83

Notebook: CC(=O)c1c(C)c2cnc(Nc3ccc(N4CCNCC4)cn3)nc2n(C2CCCC2)c1=O + COc1c(OCCCN2CCOCC2)ccc2c3n(c(=NC(=O)c4cnc(N)nc4)nc12)CCN3 , viability, T/C read as 94.8

Notebook: Cn1ncnc1[C@H]1c2n[nH]c(=O)c3cc(F)cc(c23)N[C@@H]1c1ccc(F)cc1 + COc1c(OCCCN2CCOCC2)ccc2c3n(c(=NC(=O)c4cnc(N)nc4)nc12)CCN3 , viability, T/C read as 107

Source of measurements: PubChem BioAssay AID1963970
